Let's look at some IC50 data for Sodium- and chloride-dependent glycine transporter 1 (Homo sapiens) that I collected from the literature.
Mark T only for IC50 values smaller than 600 nM; exact matches and larger values are F.

These solved cases illustrate the format of a correct answer.
CC1CCC(C)N1C[C@@H](O)CNS(=O)(=O)c1cccc2ccccc12 (some centres not stated) : F
CC1CC(C)N(C[C@@H](O)CNS(=O)(=O)c2cc(Cl)sc2Cl)C1 (some centres not stated) : F
CC(C)(C)C1CCCN1C[C@@H](O)CNS(=O)(=O)c1cccc2ccccc12 (single isomer, unassigned; isomer B) : T

Problem: I wonder whether CC(C)C1CCCN1C[C@@H](O)CNS(=O)(=O)c1cccc2ccccc12 (single isomer, unassigned; isomer B) has IC50 below 600 nM. Can you tell?
Solution: T

Problem: I wonder whether CCCS(=O)(=O)N1CCC(CNC(=O)c2c(F)cccc2F)(C(=O)N2CCOCC2)CC1 has IC50 below 600 nM. Can you tell?
Solution: T

Problem: I wonder whether CC1CCCN(C[C@@H](O)CNS(=O)(=O)c2cccc3ccccc23)C1 (some centres not stated) has IC50 below 600 nM. Can you tell?
Solution: F

Problem: I wonder whether CCS(=O)(=O)N1CC2CCC(NC(=O)c3ccc(Cl)cc3Cl)C2C1 (racemic) has IC50 below 600 nM. Can you tell?
Solution: F

Problem: I wonder whether Cn1cnc(S(=O)(=O)N2CC3CCC(NC(=O)c4ccccc4C(F)(F)F)C3C2)c1 (racemic) has IC50 below 600 nM. Can you tell?
Solution: T

---

Let's look at some IC50 data for Sodium- and chloride-dependent glycine transporter 1 (Homo sapiens, UniProt P48067) that I collected from the literature.
The reply should be a number in nM, with the unit left off.

CCCS(=O)(=O)N1CCC(CNC(=O)c2ccc(F)cc2C(F)(F)F)(C(=O)N2CCOCC2)CC1 : 67.8
CCCN(C[C@@H](O)CNS(=O)(=O)c1cccc2ccccc12)C(C)(C)C : 1000
CCCS(=O)(=O)N1CCC(CNC(=O)c2ccc(Cl)cc2Cl)(C(=O)N2CCOCC2)CC1 : 2.4
Cn1cc(S(=O)(=O)N2CC3CCC(NC(=O)c4ccc(Cl)cc4Cl)C3C2)nn1 (racemic) : 15
COc1cc(C(F)(F)F)cc(C(F)(F)F)c1C(=O)NC1(c2ccccc2)CCCN(C)C1 (centres undefined) : 140

Problem: Sample CCCS(=O)(=O)N1CCC(CNC(=O)c2ccc(F)cc2Cl)(C(=O)N2CCOCC2)CC1 — what was its IC50?
Solution: 12.6

---

Let's look at some IC50 data for Sodium- and chloride-dependent glycine transporter 1 (Homo sapiens, UniProt P48067) that I collected from the literature.
The reply should be a number in nM, with the unit left off.

CN(C)S(=O)(=O)N1CCC(CNC(=O)c2ccc(Cl)cc2Cl)(c2ccccn2)CC1 : 77
CCCS(=O)(=O)N1CCC(CNC(=O)c2ccccc2)(C(=O)N2CCOCC2)CC1 : 264
O=S(=O)(NC[C@H](O)CN1CCCC1)c1cccc2ccccc12 : 3160
CCS(=O)(=O)N1CCC(CNC(=O)c2ccc(Cl)cc2Cl)(CC2CC2)CC1 : 26
CCCS(=O)(=O)N1CCC(CNC(=O)c2ccc(Cl)cc2Cl)(CC2CC2)CC1 : 30
CCCS(=O)(=O)N1CCC(CCOC)(CNC(=O)c2ccc(Cl)cc2Cl)CC1 : 26.5
CC1CC(C)N(C[C@@H](O)CNS(=O)(=O)c2ccc3ccccc3c2)C1 (stereo not given in full) : 3980
CCCS(=O)(=O)N1CCC(CNC(=O)c2ccc(Cl)cc2Cl)(C(=O)N2CCC(N(C)C)C2)CC1 (stereo not given) : 544

Next, consider the following compound.
Problem: What reported IC50 corresponds to CC(F)CS(=O)(=O)N1CCC(CNC(=O)c2ccc(Cl)cc2Cl)(c2ccccn2)CC1 (stereo not given) on Sodium- and chloride-dependent glycine transporter 1 (Homo sapiens, UniProt P48067)?
Solution: 9.7
